Hey, just so you know, these numbers are from patent US20250382376A1.

- Tested system: T1, extracellular domain of human CD73 protein, C-terminus polyhistidine-tagged (human, UniProt P21589 27-547)
- T1 construct: also the immunogen; also called CD73-ECD; human CD73-ECD
- T1 sequence: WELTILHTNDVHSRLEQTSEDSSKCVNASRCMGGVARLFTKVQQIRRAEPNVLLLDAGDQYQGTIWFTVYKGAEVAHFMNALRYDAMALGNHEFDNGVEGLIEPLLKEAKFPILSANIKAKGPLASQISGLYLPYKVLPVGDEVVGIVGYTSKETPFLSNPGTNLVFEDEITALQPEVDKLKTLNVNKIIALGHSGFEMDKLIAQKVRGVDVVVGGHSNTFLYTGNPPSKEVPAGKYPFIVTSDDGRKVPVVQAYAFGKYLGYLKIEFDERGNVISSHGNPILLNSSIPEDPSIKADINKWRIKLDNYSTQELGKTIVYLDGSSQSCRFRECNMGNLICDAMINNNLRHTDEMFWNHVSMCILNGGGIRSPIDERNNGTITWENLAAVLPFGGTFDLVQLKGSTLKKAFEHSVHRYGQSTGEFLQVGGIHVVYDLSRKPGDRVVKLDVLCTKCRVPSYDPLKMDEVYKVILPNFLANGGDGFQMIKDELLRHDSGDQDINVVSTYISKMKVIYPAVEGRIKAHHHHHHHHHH
- Method: SPR as the filing names it (ForteBio OCTET R2); antibody on Protein A sensor, CD73-ECD in solution, 25 C
Attribute measured: Kd (nM)
Express it in nM; write the number only.

Check out these entries, answers already filled in.
[[record]]
binder = "chimeric nanobody 4-B02 (Fc fusion, Human-alpaca chimeric antibody) VHH: EVQLVESGGGLVQPGGSLRLSCAASGFPLDYYSIGWFRQAPGKEREGVSCIGSSDGSTYYADSVKGRFTISRDNAENTVWLQMNSLKPEDTAVYYCAALKYYYCSGHEAIYDYWGQGTQVTVSG"
unit_of_measurement = "nM"
measured_value = 0.795

[[record]]
binder = "chimeric nanobody 4-D04 (Fc fusion, Human-alpaca chimeric antibody) VHH: QLQLVESGGGLVQPGGSLRLSCAASGFTLDYYNIGWFRQAPGKEREGVSCISSSEGSTYYADSVKGRFTISRDNAKNTVYLQMNSLKPEDTAVYYCAADRYYYCSLHVSQYDYWGQGTLVTVSS"
unit_of_measurement = "nM"
measured_value = 0.919

[[record]]
binder = "chimeric nanobody 3-D7 (Fc fusion, Human-alpaca chimeric antibody (VHH on hIgG1 Fc); Only the VHH is tied to the tested molecule; 37-39 exist for 3-D7-FC1/FC2/FC3; also called original antibody 3-D7) VHH: QRQLVESGGGLVQPGGSLRLSCAASGFLLDYYVIGWFRQAPGKEREGVSCISGSDRSTYYADSVKGRFTISRDNAKNTVYLQMNSLKPEDTAVYFCAADPSPVTVQAMCLPRFPVPYWGQGTQVTVST"
unit_of_measurement = "nM"
measured_value = 2


Let us examine a further case.
Input: Name the recorded Kd of the binder listed here: chimeric nanobody 5-E11 (Fc fusion, Human-alpaca chimeric antibody (VHH on hIgG1 Fc); Only the VHH is tied to the tested molecule; also called original antibody 5-E11) VHH: ALQLVESGGGLVQPGGSLRLSCEVSGFTLDYYNIGWFRQAPGKEREGVSCSSNSGGSTYYADSVKGRFTISRDNAKNTVYLQMNSLKPEDTGVYYCAAYRGWHPSLDARVYDYWGQGTEVTVSS
Output: 0.826
